Target: PRKCI (human) (UniProt P41743)
Sequence (P41743 whole entry, looked up): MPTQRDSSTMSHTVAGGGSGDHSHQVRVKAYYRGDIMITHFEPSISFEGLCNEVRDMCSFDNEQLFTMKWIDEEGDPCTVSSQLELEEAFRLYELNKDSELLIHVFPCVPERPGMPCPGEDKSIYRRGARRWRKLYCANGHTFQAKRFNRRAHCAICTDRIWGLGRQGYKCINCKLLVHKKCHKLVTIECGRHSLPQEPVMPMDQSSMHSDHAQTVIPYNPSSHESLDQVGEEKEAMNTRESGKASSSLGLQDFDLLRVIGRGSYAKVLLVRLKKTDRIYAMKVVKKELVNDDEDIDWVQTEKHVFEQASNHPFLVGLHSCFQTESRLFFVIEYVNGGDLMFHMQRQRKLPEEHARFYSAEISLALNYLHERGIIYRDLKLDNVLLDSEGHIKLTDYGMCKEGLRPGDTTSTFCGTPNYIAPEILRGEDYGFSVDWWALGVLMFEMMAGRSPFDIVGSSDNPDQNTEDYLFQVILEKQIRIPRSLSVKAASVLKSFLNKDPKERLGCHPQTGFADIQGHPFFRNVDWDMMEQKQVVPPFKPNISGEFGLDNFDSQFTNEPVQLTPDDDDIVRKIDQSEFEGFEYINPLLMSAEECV
Experiment: KINOMEscan competition binding
Settings: compound 10.0 µM
Could you mark each record Fulfilled if its kinase still bound, per cent of control falls strictly under 90%, and Not fulfilled if it equals or exceeds it?

[[record]]
molecule = "CNC(=O)Nc1ccc(-c2nc(N3CC4CCC(C3)O4)c3cnn(C4CCC5(CC4)OCCO5)c3n2)cc1"
labelclass = "Fulfilled"

[[record]]
molecule = "COc1cc2c(Nc3ccc(NC(=O)c4ccccc4)cc3)ncnc2cc1OCCCN1CCOCC1"
labelclass = "Not fulfilled"

[[record]]
molecule = "CC1=C(C(=O)Nc2cc3cn[nH]c3cc2F)C(c2ccc(C(F)(F)F)cc2)CC(=O)N1 (stereo not given)"
labelclass = "Fulfilled"

[[record]]
molecule = "CCc1nc(-c2cccc(C)c2)c(-c2ccnc(NC(=O)c3ccccc3)c2)s1"
labelclass = "Not fulfilled"

[[record]]
molecule = "CC(=O)c1c(C)c2cnc(Nc3ccc(N4CCNCC4)cn3)nc2n(C2CCCC2)c1=O"
labelclass = "Fulfilled"

